systemName: SIK3 (Homo sapiens)
Construct: purchased SignalChem S12-11G-100
Sequence (Q9Y2K2 59-365 limits assumed): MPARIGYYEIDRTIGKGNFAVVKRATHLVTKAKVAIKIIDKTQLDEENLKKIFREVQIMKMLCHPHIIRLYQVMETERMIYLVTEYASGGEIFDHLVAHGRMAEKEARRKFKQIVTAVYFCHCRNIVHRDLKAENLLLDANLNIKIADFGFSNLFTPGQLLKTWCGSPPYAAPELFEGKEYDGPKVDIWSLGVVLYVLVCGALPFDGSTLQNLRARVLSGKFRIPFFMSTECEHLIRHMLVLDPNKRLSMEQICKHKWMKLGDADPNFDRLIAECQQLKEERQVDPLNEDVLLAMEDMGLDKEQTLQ
protocolDescription: 33P radioactive kinase assay, SIK3
Type: biochemical
conditionDescription: 33P radioactive assay; AMARA 7 μM; 15 μM ATP; 80 min; average IC50
readoutLabel: IC50

For this compound ( CCNC(=O)c1c(OC)cc(-c2cnc3cc(C(C)(C)C(N)=O)ccn23)cc1OC ), measured IC50 is 100 to 500 nM

For this compound ( COc1cc(-c2cnc3cc(C(C)(C)C(N)=O)ccn23)cc(OC)c1C(=O)NC1CC1 ), measured IC50 is 10 to 100 nM

For this compound ( COc1cc(-n2cnc3cc(C(C)(C)C#N)ccc32)cc(OC)c1C(=O)NCC(F)(F)F ), measured IC50 is 100 to 500 nM

For this compound ( COc1cc(-n2cnc3cc(C(C)(C)C#N)ccc32)cc(OC(F)F)c1C(=O)NC1CC1 ), measured IC50 is 100 to 500 nM

For this compound ( COc1cc(-n2cnc3cc(C4CCN(C)CC4)ccc32)cc(OC)c1C(=O)NCC(F)(F)F ), measured IC50 is > 500 nM

For this compound ( COc1cc(-n2cnc3cc(C4CCN(CC#N)CC4)ccc32)cc(OC)c1C(=O)NCC(F)(F)F ), measured IC50 is 100 to 500 nM
